tested on: RXF 393; test: NCI tumour cell line growth inhibition, 48 h
Calls of active or inactive are those of the source. No stated cut-off is given here; in the data, active = GI50 up to about 1.1 µM and inactive = higher.
Consider the following molecules and their measured GI50 readings.

1. COC(=O)C([C@H]1CC[C@H](OCc2ccccc2)[C@@]1(O)COCc1ccccc1)C(C)(O)CCc1ccccc1 (stereo partly specified) :: 10.4 µM (inactive)

Okay, now this molecule:
Entry under review: O=c1[nH]c2ccc(O)cc2o1 . Reported GI50? 2.49 µM (inactive)

* * *

// reported GI50 for each item listed
test system: BT-549; assay: NCI tumour cell line growth inhibition, 48 h
Calls of active or inactive are those of the source. Cut-off read from the data, not from the text of the source: active = GI50 up to about 1.1 µM and inactive = higher.

1) CC[C@H]1CN2CCc3cc(OC)c(OC)cc3[C@@H]2C[C@@H]1C[C@H]1NCCc2c1[nH]c1ccc(O)cc21 :: 0.191 µM (active)
2) CC(O)(c1ccccc1)c1nccc2ccccc12 (stereo not drawn) :: 56.1 µM (inactive)
3) Cc1ccc2c(c1)SC1=Nc3sc4cc(C)ccc4[n+]3CN12 :: 2.43 µM (inactive)
4) CCOC(=O)/C=C(\C(=O)OCC)n1ccc(=O)[nH]c1=O :: 16.7 µM (inactive)
5) COc1cc(C2SCC(=O)N2c2ccc(-c3ccc(-n4c(-c5ccccc5)nc5ccccc5c4=O)cc3)cc2)ccc1O (stereo not drawn) :: > 100 µM (inactive)
6) COc1cccc(C2CC(C)(O)Oc3cc4c(cc32)OCO4)c1 (stereo not drawn) :: 16.1 µM (inactive)
7) O=C(N/N=C1/C(=O)c2c3ccccc3cc3cccc1c23)c1ccccc1 :: > 100 µM (inactive)
8) O=c1[nH]c2ccc(O)cc2o1 :: > 100 µM (inactive)

For the next question, use this compound.
Which GI50 value is on record for O=C(NC(Cc1ccccc1)P(=O)(O)c1ccccc1)OCc1ccccc1 (stereo not drawn) ? > 100 µM (inactive)

* * *

test system: NCI-H522; experiment: NCI tumour cell line growth inhibition, 48 h
Active and inactive are the calls of the source. Cut-off read from the data, not from the text of the source: active = GI50 up to about 1.1 µM and inactive = higher.
recorded.metric: GI50

Observe how each entry below is paired with its result.
1) O=C(C=P(c1ccccc1)(c1ccccc1)c1ccccc1)c1cccc(-c2cccc([N+](=O)[O-])c2)c1 :: 1.86 µM (inactive)
2) Clc1ccc(/N=c2\oc3ccccc3cc2-c2nc3ccccc3[nH]2)c(Cl)c1 :: 78.5 µM (inactive)

For the molecule shown here, COC(=O)c1cc2c(c(C(=O)OC)c1)CCC2 , give the reported GI50. 58.2 µM (inactive)

Requested read-out: GI50. Entry: CC(C)C(Br)CCC1=CCC(Br)(Br)C1 (stereo not given) 2.35 µM (inactive)

Recorded GI50 for COc1cc(/C=C2\Sc3scc(-c4cccc([N+](=O)[O-])c4)[n+]3C2=O)cc(OC)c1OC , please? 4.67 µM (inactive)

Consider the molecule shown here: CC1=C(C(=O)OC23CC4CC(CC(C4)C2)C3)C(c2ccccc2OC(F)F)C(C(=O)OC23CC4CC(CC(C4)C2)C3)=C(C)N1 (stereo not given) What is its recorded GI50? 75.2 µM (inactive)

Entry CCCCCCCCCCCCCCCCCCNc1nc(=O)n(C2CC(O)C(COP(=O)(O)OCC3OC(n4ccc(N)nc4=O)C(O)C3O)O2)cc1F (stereo not given) : reported GI50 = ? 3.8 µM (inactive)

Entry under review: CC(=O)NNC(=S)N/C=C1/C(=O)Oc2ccccc2C1=O . Reported GI50? > 100 µM (inactive)

Give the measured GI50 of COC(=O)Cc1c(C2C(CC(=O)OC)c3ccccc3N2C2OC(CO)C(O)C(O)C2O)[nH]c2ccccc12 (stereo not given) . > 100 µM (inactive)

May I ask what GI50 has been recorded for CCOC(=O)/C=C(\C(=O)OCC)n1ccc(=O)[nH]c1=O ? 0.684 µM (active)

GI50 lookup needed for CC1(C)N=C(N)N=C(N)N1c1cccc(OCc2cccc([N+](=O)[O-])c2)c1 , thanks. 8.91 µM (inactive)

Entry under review: Cc1ccc2nc(CN(CCO)CCO)cc(=O)n2c1 . Reported GI50? > 100 µM (inactive)

Give its GI50 value. Item: Cc1ccc2c(c1)SC1=Nc3sc4cc(C)ccc4[n+]3CN12 1.05 µM (active)

Could you tell me which GI50 is on file for N#CC1(Cc2ccc(N)cc2)c2ccccc2C=CN1C(=O)c1ccccc1 (stereo not given) ? 60.1 µM (inactive)

GI50 for O=C1C(=O)N(c2ccc(Cl)cc2)C(=O)C(=O)C1c1nc2ccccc2o1 ? > 100 µM (inactive)

Numbers sourced from ChEMBL document CHEMBL1201862.
